- Test system: RXF 393 renal
- assay.info: NCI tumour cell line growth inhibition, 48 h; in the data active = GI50 below about 0.43 µM; inactive = the rest
Possible outcomes: True for active, False for inactive

| molecule | cat |
| --- | --- |
| NC(=O)[C@H]1CCN(c2ncnc(N)c2F)C[C@@H]1N1CCC[C@@H](Nc2cc(Cl)cc(C(F)(F)F)c2)C1=O | False |
| CCC[CH2][Sn]([CH2]CCC)([O]C(C)=O)[O]C(C)=O | True |
| COc1cc2c(cc1OC)-c1ccc3cc4c(cc3c1N(CCN1CCCC1)C2)OCO4 | False |
| CCCN1C(=O)/C(=c2\sc3n(c2=O)C2C(NN=3)N(CC)C(=O)N2CC)c2ccccc21 (centres undefined) | True |
| CC1=C(C(=O)OCc2ccccc2)C(c2ccc3c(c2)OCO3)n2c(nc3ccccc32)N1 (centres undefined) | True |
| CC1(C)CCC2(C(=O)OC3OC(CO)C(O)C(O)C3O)CC[C@]3(C)C(=CCC4C5(C)CC[C@H](OC6OC(C(=O)O)C(O)C(O)C6O)C(C)(C)C5CCC43C)C2C1 (some centres undefined) | False |
| OCC1OC(n2ccc3c2ncn2ncnc32)C(O)C1O (centres undefined) | False |
| O=C(CCN1CCCC1)Nc1ccc2c(NCc3ccc(F)cc3)c3ccccc3nc2c1 | True |
| CCN(CC)CCOc1ccc(C(=C(C)c2ccc(Cl)cc2)c2ccc(OCCN(CC)CC)cc2)cc1 | False |

* * *

- Tested on: A549 NSCLC
- assay.info: NCI tumour cell line growth inhibition, 48 h

| compound | TGI |
| --- | --- |
| Fc1ccc(-c2nc3n(c2-c2ccncc2)CCS3)cc1 | > 25 µM |
| CCN(CC)c1ccc(/C=C/c2cc(C)c3ccccc3n2)cc1 | > 100 µM |
| O=C(O)C1CC2C3CCC2C1C3=O (stereo not given) | > 100 µM |
| c1ccc2[nH]c(-c3ccc(N4CCN(c5ccc(-c6nc7ccccc7[nH]6)cc5)CC4)cc3)nc2c1 | > 100 µM |
| NC(=S)NNC(=O)/C(=C/c1ccc(/C=C(\NC(=O)c2ccccc2)C(=O)NNC(N)=S)cc1)NC(=O)c1ccccc1 | > 100 µM |
| NC(=O)OCC(COc1ccc(Cl)cc1)OC(=O)c1ccccc1Cl (stereo not given) | 75.8 µM |
| CC12CCC(=O)C=C1CCC1C2CCC2(C)C(C(=O)Cn3cnc4c(=S)nc[nH]c43)CCC12 (stereo not given) | > 100 µM |
| CCCCc1ccc(Nc2nc(Cl)c3c(ncn3COCCOC(C)=O)n2)cc1 | 41 µM |
| O=c1[nH]c(=O)n(C2OC(CO)C(O)C(F)C2O)cc1F (stereo not given) | > 100 µM |
| COc1ccc(Br)c2c1CC(C(=O)O)CC2 (stereo not given) | > 100 µM |

* * *

- Tested on: OVCAR-5 ovarian
- assay.info: NCI tumour cell line growth inhibition, 48 h
Recorded TGI values for a group of compounds are listed next.

| compound | TGI |
| --- | --- |
| O=C1C/C(=C/c2ccc(/C=C3/CC(=O)N(c4cccc(Br)c4)C3=O)cc2)C(=O)N1c1cccc(Br)c1 | > 100 µM |
| O=C1NC(N2CCOCC2)=N/C1=C\c1cccs1 | > 100 µM |
| C[C@H]1[C@H](C)N(Cc2ccccc2)P(=O)(C(O)/C=C/c2ccccc2)N1Cc1ccccc1 (stereo not given in full) | 18.8 µM |
| Cc1ccc(C(=O)Nc2ccc(S(=O)(=O)O)c3cc(S(=O)(=O)O)cc(S(=O)(=O)O)c23)cc1NC(=O)c1cccc(N)c1 | > 100 µM |
| CC1=C(C(=O)Nc2cccc3c2C(=O)NC3=O)CC(C(=O)Nc2cccc3c2C(=O)NC3=O)=C(C)N1 | > 100 µM |
| NCC1(N2CCOCC2)C2CCCC21CO (stereo not given) | > 100 µM |
| CC(=O)[O][Pb]([O]C(C)=O)([c]1ccccc1)[c]1ccccc1 | > 100 µM |
| O=C(O)C1C(C(=O)O)C2C(=O)C=CC1N2Cc1ccccc1 (stereo not given) | 20.5 µM |
| CCc1c(C)[nH]c(/C=C2\N=C(c3ccc[nH]3)C=C2OC)c1C | 7.3 µM |
| COc1ccc(/C=C(\Cl)c2ccc(OC)c(OC)c2)cc1OC | > 100 µM |
